# Tested on: SN12C
# assayProtocol: NCI tumour cell line growth inhibition, 48 h
Calls of active or inactive are those of the source. Rule as the data show it: active = GI50 up to about 1.1 µM and inactive = higher.
parameterMeasured: GI50

Would you please look over these solved cases?
[Q] Need GI50 of `O=C1NC2(CCCC2)C(=O)C12CCCC2` , thanks.
[A] > 100 µM (inactive)

[Q] Need GI50 of CC1=NN(c2cccc(Cl)c2)C2(C1=C/C=C/c1ccccc1)C(Cl)C(=O)N2c1nc2ccccc2s1 (configuration not stated) , thanks.
[A] 34.6 µM (inactive)

[Q] Need GI50 of `CC(NC(=O)N(C)C)NC(=O)N(C)C` , thanks.
[A] > 10 µM (inactive)

[Q] Need GI50 of `C#CCN(C)C(=O)N(CC#C)N=O` , thanks.
[A] > 100 µM (inactive)

[Q] Need GI50 of `Cc1ccc(S(=O)(=O)c2ccccn2)cc1` , thanks.
[A] > 100 µM (inactive)

[Q] Need GI50 of `COc1cc(C2=N/C(=C/c3cccs3)C(=O)O2)cc(OC)c1OC` , thanks.
[A] > 100 µM (inactive)

Turning now to a further record.
[Q] Need GI50 of C=C(C(=O)O)C1CCC(CC/C=C(\C)CC/C=C(\C)CCC=C(C)C)CO1 (configuration not stated) , thanks.
[A] 14.2 µM (inactive)
